Assay: in vivo
Settings: Sprague Dawley, rat, im, 200 mg/kg
ASSAY READOUT: Tmax

>>> experimental_result("O=C(Nc1ccc([N+](=O)[O-])cc1Cl)c1cc(Cl)ccc1O [niclosamide]")
"3 h"

---

Assay: in vivo
Conditions: Sprague Dawley, rat, im, 200 mg/kg
ASSAY READOUT: Cmax (ng/mL)

>>> experimental_result("O=C(Nc1ccc([N+](=O)[O-])cc1Cl)c1cc(Cl)ccc1O [niclosamide]")
3130

---

Assay: in vivo
Settings: Sprague Dawley, rat, im, 200 mg/kg
ASSAY READOUT: AUC(0-t) (ng·h/mL)

>>> experimental_result("O=C(Nc1ccc([N+](=O)[O-])cc1Cl)c1cc(Cl)ccc1O [niclosamide]")
58300

---

Assay: in vivo
Settings: Sprague Dawley, rat, im, 100 mg/kg
ASSAY READOUT: AUC(0-t)

>>> experimental_result("O=C(Nc1ccc([N+](=O)[O-])cc1Cl)c1cc(Cl)ccc1O [niclosamide]")
"47500 ng·h/mL"

---

Experiment: in vivo
Details: Sprague Dawley, rat, im, 50 mg/kg
ASSAY READOUT: AUC(0-t) (ng·h/mL)

>>> experimental_result("O=C(Nc1ccc([N+](=O)[O-])cc1Cl)c1cc(Cl)ccc1O [niclosamide]")
24800
